tested target: cynomolgus IL-13 (purchased from sino biological) (cynomolgus) (UniProt Q0PW92)
Sequence (Q0PW92 entry or part of it): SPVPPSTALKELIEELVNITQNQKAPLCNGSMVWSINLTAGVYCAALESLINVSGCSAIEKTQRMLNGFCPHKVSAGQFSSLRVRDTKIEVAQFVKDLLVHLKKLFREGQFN
assay comment: ELISA, cynomolgus IL-13; antibody at 0.021 nM
readout kind: OD450 nm

1. 35E2C3 (lead antibody, mouse hybridoma) (antibody, V domains shown, Mouse monoclonal antibody purified from hybridoma supernatant on Protein G) VH: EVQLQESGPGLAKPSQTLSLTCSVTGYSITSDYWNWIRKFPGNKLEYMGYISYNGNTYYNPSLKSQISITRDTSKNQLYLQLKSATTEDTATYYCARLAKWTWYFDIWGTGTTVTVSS VL: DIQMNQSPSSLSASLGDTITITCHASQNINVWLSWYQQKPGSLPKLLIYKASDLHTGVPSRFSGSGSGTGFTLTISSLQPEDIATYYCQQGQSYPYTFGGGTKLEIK
0.07
2. 29D9H8 (lead antibody, mouse hybridoma) (antibody, V domains shown, Mouse monoclonal antibody purified from hybridoma supernatant on Protein G) VH: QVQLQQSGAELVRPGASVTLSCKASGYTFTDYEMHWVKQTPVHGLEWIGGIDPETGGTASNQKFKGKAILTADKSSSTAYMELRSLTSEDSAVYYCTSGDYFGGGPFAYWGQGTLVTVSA VL: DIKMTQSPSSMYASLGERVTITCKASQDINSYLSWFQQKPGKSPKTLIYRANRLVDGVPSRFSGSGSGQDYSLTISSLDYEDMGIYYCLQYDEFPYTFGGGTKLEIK
0.56
3. c28A2E11 (mouse-human chimeric IL-13 antibody) (antibody, V domains shown) VH: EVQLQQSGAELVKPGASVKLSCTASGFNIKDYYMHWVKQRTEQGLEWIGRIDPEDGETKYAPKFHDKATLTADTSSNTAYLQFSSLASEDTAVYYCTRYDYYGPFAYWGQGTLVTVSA VL: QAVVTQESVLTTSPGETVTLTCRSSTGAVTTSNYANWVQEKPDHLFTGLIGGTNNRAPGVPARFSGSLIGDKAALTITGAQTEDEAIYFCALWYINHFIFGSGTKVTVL
0.085
4. c35E2C3 (mouse-human chimeric IL-13 antibody) (antibody, V domains shown) VH: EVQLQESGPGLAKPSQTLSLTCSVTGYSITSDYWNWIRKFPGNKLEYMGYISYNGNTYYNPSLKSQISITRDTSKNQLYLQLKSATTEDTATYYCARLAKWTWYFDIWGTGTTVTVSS VL: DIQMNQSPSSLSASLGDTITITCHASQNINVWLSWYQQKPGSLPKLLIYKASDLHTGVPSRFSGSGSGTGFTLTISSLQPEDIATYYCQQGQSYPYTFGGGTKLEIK
0.136
5. c29D9H8 (mouse-human chimeric IL-13 antibody) (antibody, V domains shown) VH: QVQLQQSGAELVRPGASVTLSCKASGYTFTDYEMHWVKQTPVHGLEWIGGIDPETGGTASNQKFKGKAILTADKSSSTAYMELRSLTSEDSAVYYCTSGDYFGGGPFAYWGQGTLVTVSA VL: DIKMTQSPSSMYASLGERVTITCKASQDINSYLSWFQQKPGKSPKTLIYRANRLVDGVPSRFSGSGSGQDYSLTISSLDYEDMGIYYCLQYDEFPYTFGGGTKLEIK
0.408
6. 28A2E11 (lead antibody, mouse hybridoma) (antibody, V domains shown, Mouse monoclonal antibody purified from hybridoma supernatant on Protein G) VH: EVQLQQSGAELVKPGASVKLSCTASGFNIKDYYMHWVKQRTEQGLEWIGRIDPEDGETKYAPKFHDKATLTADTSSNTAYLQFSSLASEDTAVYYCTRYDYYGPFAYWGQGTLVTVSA VL: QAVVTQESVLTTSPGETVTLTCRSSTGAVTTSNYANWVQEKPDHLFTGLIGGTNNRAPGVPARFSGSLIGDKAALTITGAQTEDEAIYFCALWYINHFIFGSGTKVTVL
0.14
